What pKd was measured for each of the following?
# measurement.target: S275W HSC70-NBD (Homo sapiens, UniProt P11142, S275W)
# Construct: made in house
# Sequence (P11142 2-386 S275W limits assumed): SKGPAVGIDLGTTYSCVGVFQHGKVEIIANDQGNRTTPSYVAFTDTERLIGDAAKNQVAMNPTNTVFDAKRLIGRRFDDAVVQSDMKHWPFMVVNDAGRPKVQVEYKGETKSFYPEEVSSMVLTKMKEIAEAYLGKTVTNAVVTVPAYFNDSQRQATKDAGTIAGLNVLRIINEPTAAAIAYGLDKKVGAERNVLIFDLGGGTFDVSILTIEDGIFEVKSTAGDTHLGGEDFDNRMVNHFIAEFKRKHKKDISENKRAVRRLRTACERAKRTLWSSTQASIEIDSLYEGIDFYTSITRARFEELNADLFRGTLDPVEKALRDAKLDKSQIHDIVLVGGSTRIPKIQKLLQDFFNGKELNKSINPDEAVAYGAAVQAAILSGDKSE
# test.details: SPR binding to S275W mutant HSC70-NBD
# experimental.parameters: n = 2 determinations unless marked single; read-out: HSC70-NBD S275W SPR KD
Scale: negative log10 of molar concentration, which is what pKd denotes.

Name the recorded pKd for CNc1nc(C)cc(-c2cccc(C(=O)NCCc3ccc(C)o3)c2)n1 [Compound 7] . 3.80

Record request: pKd value, item CC(C)c1csc(CCNC(=O)c2cccc(-c3cncc(O)n3)c2)n1 [Compound 4] 3.41

Fill in the blank: the reported pKd of COc1cccc(-c2cc(CNC(=O)c3c(C)oc4c3C(=O)CCC4)on2)c1 [Compound 8] is ____. 4.07

// pKd lookup, key: c1ccc(-c2ccc(Cn3nnnc3N3CCCC(c4ncc[nH]4)C3)cc2)cc1 (centres unmarked) [Compound 6] 4.92

Need pKd, item CC(C)(O)C#Cc1cccc(C(=O)NCc2ccc(-n3cncn3)cc2)c1 [Compound 5] 3.75
